# IC50 per entry for ROCK2 (Homo sapiens, UniProt O75116)
Give bare numbers, in nM.

Recorded results for 5 compounds are shown here.
Mol | Units symbol | IC50
COc1ccc(C(=O)N2CCC3(CC2)CN(c2ccc(-c4cn[nH]c4)cc2)C3=O)cc1 | nM | 132
COc1cc(N2CCC3(CCN(C(=O)c4cc(C(C)C)n[nH]4)CC3)C2=O)ccc1-c1cn[nH]c1 | nM | 34
COc1cc(N2CCC3(CCN(C(=O)c4ccc(N5CCN(CCC(C)(C)C)CC5)cc4)CC3)C2=O)ccc1-c1cn[nH]c1 | nM | 2.2
COc1cc(N2CCC3(CCN(C(=O)c4ccc5c(c4)ncn5C)CC3)C2=O)ccc1-c1cn[nH]c1 | nM | 2.6
COc1ccc(-c2cc(C(=O)N3CCC4(CC3)CCN(c3ccc(-c5cn[nH]c5)c(OC)c3)C4=O)on2)cc1 | nM | 17

Batch request: IC50 per item, same order as input.
1. CN1CCN(c2ccc(C(=O)N3CCC4(CC3)CCN(c3cccc(-c5ccc6[nH]ncc6c5)c3)C4=O)cc2)CC1
2. COc1cc(N2CCC3(CCN(C(=O)c4ccc(N5CCN(C6CCCCC6)CC5)cc4)CC3)C2=O)ccc1-c1cn[nH]c1
3. COc1cc(N2CCC3(CCN(C(=O)c4cccs4)CC3)C2=O)ccc1-c1cn[nH]c1
4. COc1cc(N2CCC3(CCN(C(=O)C4CCN(S(C)(=O)=O)CC4)CC3)C2=O)ccc1-c1cn[nH]c1
5. COc1cc(N2CCC3(CCN(C(=O)c4ccc5c(cnn5C)c4)CC3)C2=O)ccc1-c1cn[nH]c1

Reply:
1: 14; 2: 0.7; 3: 117; 4: 2000; 5: 6.2

Hey, quick one: what's IC50 for each of these?
1. COc1cc(N2CCC3(CCN(C(=O)c4cc(C)n5nc[nH]c(=O)c45)CC3)C2=O)ccc1-c1cn[nH]c1
2. COc1cc(N2CCC3(CCN(C(=O)c4ccc(Cl)cc4F)CC3)C2=O)ccc1-c1cn[nH]c1

Reply:
[3, 50]

Each of the following entries comes with a recorded value; kindly state IC50 for each.
1. COc1cc(N2CCC3(CCN(C(=O)c4cnn5cccnc45)CC3)C2=O)ccc1-c1cn[nH]c1
2. COc1cc(N2CCC3(CCN(C(=O)[C@@H]4C[C@H]4c4ccccc4)CC3)C2=O)ccc1-c1cn[nH]c1
3. COc1cc(N2CCC3(CCN(C(=O)c4ccc(-n5cccc5)cc4)CC3)C2=O)ccc1-c1cn[nH]c1

Reply:
1060
436
12
